Assay: Primary qHTS for inhibitors of nuclear receptor binding SET domain protein 2 (NSD2) in an RCH-ACV wild type WT cells (2C) (AID 1645877); further: nearly all actives have a fitted effect of over 70% in size; further: potency means the concentration at half of the fitted maximal effect
Conditions: RCH-ACV (leukaemia line) NSD2 WT (2C) viability, CellTiter-Glo, 72 h; series mostly up to 44.9 µM
Results filed as inconclusive are left out. Activity calls are given as the source filed them. The call rests on the fitted dose curve; in most records, active means well fitted inhibition curve with a large enough effect; inconclusive means small, poorly fitted or top-dose-only effect; inactive means no such curve, though single readings can be large or run the other way.
readout.kind: Potency

Please review the entries below; each comes with its answer.
compound="CC12CCC(C(OC3OC(COC4OCC(O)(CO)C4O)C(O)C(O)C3O)C1)C(C)(C)O2 (stereo not drawn)" result=inactive
compound="O=C1C=CC2OC(c3ccccc3)C(O)C2O1 (stereo not drawn)" result="4.59 µM (active)"
compound=CC1(C)CC(NC(=O)C(=O)Nc2ccc(Br)cc2)CC(C)(C)N1 result="5.78 µM (active)"
compound="C=C(C)C1CC[C@]2(C(=O)O)CC[C@]3(C(=O)O)[C@H](CCC4[C@@]5(C)CC[C@H](O)C(C)(C)C5CC[C@]43C)C12 (stereo partly drawn)" result=inactive
compound=C=C1C[C@]23C[C@H]1CC[C@H]2[C@@]12CC[C@H](O)[C@@](C)(C(=O)O1)[C@H]2[C@@H]3C(=O)O result=inactive

Reported Potency, compound CC1=CC(=O)C(=C(C)C)CC2C1CCC2(C)O (stereo not drawn) : ____
inactive

Reported Potency, compound Cc1cc(O)cc(O[C@@H]2O[C@H](CO)[C@@H](O)[C@H](O)[C@H]2O)c1 : ____
inactive

Reported Potency, compound C=C1[C@H](OC(C)=O)[C@H]2[C@@H](OC(C)=O)[C@](C)(OC(C)=O)C[C@]2(OC(C)=O)C(=O)[C@H](C)/C=C/C(C)(C)C(=O)[C@H](OC(=O)C(C)CC)[C@H]1OC(C)=O (stereo partly drawn) : ____
inactive

====

Test system: Es-2
Assay: Primary qHTS to identify gynecologic anti-cancer compounds using libraries of approved drugs and bioactive compounds (AID 1345084); further: nearly all actives have a fitted effect of over 55% in size
Settings: Gynecologic cancer cell panel viability, ATPlite luminescence, 48 h; series mostly up to 57.5 µM
Records with an inconclusive call do not appear. Calls of active or inactive are those of the source. Calls come from the whole dose curve; as a rule, active = well fitted cell-killing curve with a large enough effect; inconclusive = small, poorly fitted or top-dose-only effect, or effect the other way; inactive = flat fitted curve, though single readings scatter.
// allowed return values: yes for active, no for inactive

Recorded test call requested for Cn1c2ccc(F)cc2c2c(C(=O)N3CCCC3)cn(-c3ccccc3)c(=O)c21
no

Recorded test call requested for Cc1cc2c(F)c(Oc3ncnn4cc(OCC(C)O)c(C)c34)ccc2[nH]1 (stereo not drawn)
no

Recorded test call requested for NC(=O)[C@H]1CCS[C@@H]2C[C@]3(CCCN3C(=O)Cc3ccc(NC(=O)COc4ccc(Cl)cc4Cl)cc3)C(=O)N12
no

Recorded test call requested for CC1=CC(=O)CC(C)(C)[C@H]1/C=C/C(CO)O[C@@H]1O[C@H](CO)[C@@H](O)[C@H](O)[C@H]1O (stereo partly drawn)
no

Recorded test call requested for CCC(C)C(=O)O[C@H]1CCC=C2C=C[C@H](C)[C@H](CC[C@@H](O)C[C@@H](O)CC(=O)O)[C@H]21 (stereo partly drawn)
no

Recorded test call requested for CCC(C(=O)O)c1ccc(N2Cc3ccccc3C2=O)cc1 (stereo not drawn)
no

Recorded test call requested for CC1CCC2(OC1)OC1CC3C4CC=C5CC(O)CC(O[C@@H]6OC[C@@H](O)[C@H](O)[C@H]6O)C5(C)C4CCC3(C)C1(O)C2C (stereo partly drawn)
no

Recorded test call requested for CN1CCc2nc(C(=O)N[C@@H]3C[C@@H](C(=O)N(C)C)CC[C@@H]3NC(=O)C(=O)Nc3ccc(Cl)cn3)sc2C1
no

Recorded test call requested for CC1=C(CCC(C)O[C@@H]2O[C@H](CO)[C@@H](O)[C@H](O)[C@H]2O)C(C)(C)CCC1=O (stereo partly drawn)
no

Recorded test call requested for CC1COC(Nc2ccc3ncnc(Nc4ccc(OCc5nccs5)c(Cl)c4)c3c2)=N1 (stereo not drawn)
no

Recorded test call requested for OC/C=C/C=C/[C@H]1Cc2cc(O)cc(O)c2O1
no

Recorded test call requested for C[C@H](NC(c1cccc(C[P+](=O)O)c1)[C@H](C)O)c1ccc(Cl)c(Cl)c1 (stereo partly drawn)
no

Recorded test call requested for C[C@@H]1O[C@@H](O[C@H]2[C@@H]3C=CO[C@@H](O[C@@H]4O[C@H](CO)[C@@H](O)[C@H](O)[C@H]4O)[C@@H]3[C@@]3(CO)O[C@@H]23)[C@H](OC(=O)/C=C/c2ccccc2)[C@H](O)[C@H]1O
no

Recorded test call requested for Nc1ncnc2c1nc(N)n2[C@@H]1O[C@H](CO)[C@@H](O)[C@H]1O
yes

Recorded test call requested for C=C1C(=O)OC2CC(C)=C(C(C)CCCO)C(O)C12 (stereo not drawn)
no

Recorded test call requested for COc1cc2ncnc(Nc3cccc(O)c3)c2cc1OC
no

Recorded test call requested for COc1ccc(C(O)C(C)OC2OC(CO)C(O)C(O)C2O)cc1 (stereo not drawn)
no

Recorded test call requested for C=C[C@@H]1[C@H](O[C@@H]2O[C@H](CO)[C@@H](O)[C@H](O)[C@H]2O)OC=C(C(=O)O)[C@H]1CCOC(=O)/C=C/c1ccc(O)c(O)c1
no

Recorded test call requested for CCOc1cc(CC(=O)NC(CC(C)C)c2ccccc2N2CCCCC2)ccc1C(=O)O (stereo not drawn)
no

Recorded test call requested for CC1(C)CCC[C@@]2(C)C1[C@H](OC(=O)/C=C/C=C/C(=O)O)C=C1COC(=O)[C@@]12O (stereo partly drawn)
no

Recorded test call requested for O=C(O)[C@H](Cc1ccc(Nc2nccc3ccncc23)cc1)NC1=C(Br)C(=O)C12CCCCC2
no

Recorded test call requested for C=CC(C)(C)c1[nH]c2cc3c(cc2c1CC1NC(=O)C2CCCN2C1=O)C=CC(C)(C)O3 (stereo not drawn)
no

Recorded test call requested for CC1(C)C2CC=C(COC3OC(COC4OCC(O)(CO)C4O)C(O)C(O)C3O)C1C2 (stereo not drawn)
no

Recorded test call requested for CC1CCC2(C(=O)O)CCC3(C)C(=CCC4C5(C)CCC(O)C(C)(CO)C5CCC43C)C2C1(C)O (stereo not drawn)
no

Recorded test call requested for CC(C)CN(C[C@@H](O)[C@H](Cc1ccccc1)NC(=O)O[C@@H]1CO[C@H]2OCC[C@H]21)S(=O)(=O)c1ccc(N)cc1
no

Recorded test call requested for CC(=O)O[C@@H]1[C@@H](O)[C@H](O[C@H]2CC[C@]34C[C@]35CC[C@]3(C)[C@@H]([C@@]6(C)CC[C@@H](C(C)(C)O)O6)[C@@H](O)C[C@@]3(C)[C@@H]5C[C@H](O[C@@H]3O[C@H](CO)[C@@H](O)[C@H](O)[C@H]3O)[C@H]4C2(C)C)OC[C@H]1O
no

Recorded test call requested for COc1cc(O)cc(C)c1C(=O)O[C@H]1[C@@H](OC(C)=O)[C@H](n2ccc(=O)[nH]c2=O)O[C@@H]1CO
no

Recorded test call requested for CC(=O)O[C@H]1CC[C@H](C)[C@@]2(C)[C@H](OC(C)=O)c3c(C)coc3C(=O)[C@H]12
no

Recorded test call requested for CC12CCC(C(OC3OC(COC4OCC(O)(CO)C4O)C(O)C(O)C3O)C1)C(C)(C)O2 (stereo not drawn)
no

Recorded test call requested for C[C@@H]1C(=O)OC[C@H]2C(C(=O)O)=C[C@@H]3CC(C)(C)C[C@]312
no

Recorded test call requested for COc1nc2sc(C(=O)NC3CC3)c(N)c2c(C)c1Cl
no

Recorded test call requested for Cc1noc(-c2ccc(-c3ccc(CC(=O)O)cc3)cc2)c1NC(=O)O[C@H](C)c1ccccc1
no

Recorded test call requested for COc1cc(C)c(C(=O)O[C@H]2[C@@H](OC(C)=O)[C@H](n3ccc(=O)[nH]c3=O)O[C@@H]2CO)c(OC)c1
no
